test system: LNCaP; assay: Cytotoxicity against human LNCAP cells after 48 hrs by MTT assay; format: functional, cell-based
Entries and their IC50 values follow.
State just the number; it will be interpreted in µM.

COc1cc(-c2nnc(Nc3ccccc3)s2)ccc1O; 206
COc1ccc(-c2nnc(Nc3ccccc3)s2)cc1OC1CCCC1; 112
COc1ccc(Nc2nnc(-c3cc(OC)c(OC)c(OC)c3)s2)cc1; 29.5

Query: IC50; subject: "COc1cc(-c2nnc(Nc3ccc(C)cc3)s2)ccc1O"
545

Query: IC50; subject: "COc1cc(-c2nnc(Nc3ccccc3)s2)cc(OC)c1OC"
92.8

====

system: PC-3; test: Cytotoxicity against human PC3 cells after 48 hrs by MTT assay; format: functional, cell-based; conditions: PC-3, 48 h
Entries and their pIC50 values follow.
// pIC50 here means minus log10 of the molar concentration (mol/L)

Guide cases for pIC50, answers given:
COc1ccc(Nc2nnc(-c3cc(OC)c(OC)c(OC)c3)s2)cc1; 4.84
COc1cc(-c2nnc(Nc3ccc(Cl)cc3)s2)ccc1O; 3.20
COc1ccc(-c2nnc(Nc3ccccc3)s2)cc1OC1CCCC1; 4.01
COc1cc(-c2nnc(Nc3ccc(C)cc3)s2)cc(OC)c1OC; 4.69
COc1cc(-c2nnc(Nc3ccccc3)s2)ccc1O; 4.52
COc1cccc2c1C(=O)c1c(O)c3c(c(O)c1C2=O)C[C@@](O)(C(=O)CO)C[C@@H]3O[C@H]1C[C@H](N)[C@H](O)[C@H](C)O1 [DOXORUBICIN]; 3.91

Now, please, on to the next molecule.
Quick check: pIC50 on PC-3, item "COc1cc(-c2nnc(Nc3ccc([N+](=O)[O-])cc3)s2)cc(OC)c1OC" ?
4.15
